- Study target: ACLY (Homo sapiens)
- Construct: His; made in house; host or cells: Escherichia coli BL21(DE3)
- Test description: ACLY enzymatic inhibition assay (ADP-Glo Kinase Assay)
- Format: biochemical
- Test conditions: preliminary screening, concentration of 10 µm
inhibition rate reference
Please reply with the bare figure in % and do not write the unit itself.

The examples below pair each entry with its known result.
compound="O=c1cc(-c2ccc(O)cc2)oc2cc(O)c(O)c(O)c12 [compound 52, Scutellarein]" experimental_value=91.80
compound="O=c1cc(-c2ccc(O)c(O)c2)oc2cc(O)cc(O)c12 [compound 51, Luteolin]" experimental_value=88.28
compound="O=c1c(O)c(-c2ccc(O)c(O)c2)oc2cc(O)cc(O)c12 [compound 29, Quercetin]" experimental_value=91.09

Now look at this one.
QUERY: Entry O=c1c(O)c(-c2ccc(O)cc2)oc2c(O)c(O)cc(O)c12 [compound 18, Herbacetin] has what inhibition rate?
RESULT: 96.07

###

- Study target: ACLY (Homo sapiens)
- Construct: His; made in house; host or cells: Escherichia coli BL21(DE3)
- Test description: Enzymatic kinetic studies (Michaelis-Menten, Lineweaver-Burk)
- Assay type: biochemical
- Test conditions: CoA as substrate
Assay readout: Ki

QUERY: Entry O=c1c(O)c(-c2ccc(O)cc2)oc2c(O)c(O)cc(O)c12 has what Ki?
RESULT: 190 nM

###

- Study target: ACLY (Homo sapiens)
- Construct: His; made in house; host or cells: Escherichia coli BL21(DE3)
- Sequence (P53396 1-1101): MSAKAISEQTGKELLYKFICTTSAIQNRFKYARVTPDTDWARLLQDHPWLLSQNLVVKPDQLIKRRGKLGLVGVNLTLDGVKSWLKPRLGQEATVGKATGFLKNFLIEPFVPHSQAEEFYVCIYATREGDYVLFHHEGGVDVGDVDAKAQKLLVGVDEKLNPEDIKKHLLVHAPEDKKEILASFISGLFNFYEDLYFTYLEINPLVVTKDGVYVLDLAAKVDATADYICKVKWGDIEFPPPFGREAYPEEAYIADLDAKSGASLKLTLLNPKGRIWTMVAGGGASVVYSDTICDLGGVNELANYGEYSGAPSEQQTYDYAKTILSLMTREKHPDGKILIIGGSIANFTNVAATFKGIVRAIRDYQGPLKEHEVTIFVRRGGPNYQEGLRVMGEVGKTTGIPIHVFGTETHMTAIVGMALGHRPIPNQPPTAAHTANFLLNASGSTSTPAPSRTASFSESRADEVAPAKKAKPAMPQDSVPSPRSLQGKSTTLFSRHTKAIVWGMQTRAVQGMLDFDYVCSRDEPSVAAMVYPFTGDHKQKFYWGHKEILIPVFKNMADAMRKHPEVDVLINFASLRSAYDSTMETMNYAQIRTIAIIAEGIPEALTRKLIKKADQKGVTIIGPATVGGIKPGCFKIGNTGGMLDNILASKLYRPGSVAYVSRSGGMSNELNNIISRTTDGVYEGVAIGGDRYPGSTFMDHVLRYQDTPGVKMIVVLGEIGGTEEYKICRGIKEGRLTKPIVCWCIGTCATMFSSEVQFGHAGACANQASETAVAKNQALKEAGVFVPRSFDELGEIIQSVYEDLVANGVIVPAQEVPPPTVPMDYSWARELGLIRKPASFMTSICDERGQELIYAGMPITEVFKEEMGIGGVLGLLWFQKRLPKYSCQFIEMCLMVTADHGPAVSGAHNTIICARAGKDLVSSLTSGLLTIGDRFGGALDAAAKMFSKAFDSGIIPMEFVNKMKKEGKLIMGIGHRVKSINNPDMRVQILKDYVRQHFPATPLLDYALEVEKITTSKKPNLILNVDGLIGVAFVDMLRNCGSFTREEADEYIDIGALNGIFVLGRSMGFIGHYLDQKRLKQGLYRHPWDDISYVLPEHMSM
- Test description: ACLY enzymatic inhibition assay (ADP-Glo Kinase Assay);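 note: purified recombinant His-tagged human ACLY, compounds preincubated with enzyme 15 min, then ADP formed measured as luciferase luminescence after ADP-Glo reagent depletes leftover ATP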
- Type: biochemical
- Test conditions: concentration-response curves
Assay readout: pIC50
API: returns pIC50 as number; meaning -log10 of concentration in mol/L.

The examples below pair each entry with its known result.
compound=O=c1c(O)c(-c2ccc(O)cc2)oc2cc(O)cc(O)c12 experimental_value=4.99
compound=O=c1cc(-c2ccc(O)c(O)c2)oc2cc(O)cc(O)c12 experimental_value=6.19

QUERY: Give ACLY (Homo sapiens) pIC50 for O=c1c(O[C@@H]2O[C@H](CO)[C@@H](O)[C@H](O)[C@H]2O)c(-c2ccc(O)c(O)c2)oc2cc(O)cc(O)c12
RESULT: 5.67

QUERY: How about Oc1cc(O)c2c(c1)O[C@H](c1ccc(O)c(O)c1)[C@H](O)C2 [compound 75, Epicatechin] ?
RESULT: 4.50

Origin of values: paper PMC9504748
